- Tested on: PPARg DBDmut:RXRa IVT, anti-PPARg (DBD mutation: PPARg1 K132A/R137A, NR concentration 270 nM, RXRa partner concentration 90 nM)
- assay: PBM binding z-score (relative to random genomic background probes); higher = stronger binding; sequences stand for … in GC…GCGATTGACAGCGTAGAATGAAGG
Rule: PBM binding z-score of -0.006 or more gives Satisfied; anything lower gives Not satisfied.

CCAGACAGGTGAAAGGTAACTCAGTCTGGTACGC: Satisfied
ATAACGAGGGCAATGAGTTGATAGCACGGGTGGC: Satisfied
CAGCCTTGGTCAGGGCCAGTATAGGAGGAACGTT: Not satisfied
TTACCAAGATGAAAGGTCGTTGATGCACGCCTTG: Satisfied

(Q) Textbook exercise: given the entry GGAACGAGGGCAAAGTTGACAGCATCTGTCGACG , state whether its PBM binding z-score is greater than or equal to -0.006.
(A) Satisfied

(Q) Textbook exercise: given the entry CCGACTGGGTCAAGGTTACCATAACGCACAGCCA , state whether its PBM binding z-score is greater than or equal to -0.006.
(A) Satisfied

====

- Tested on: PPARg:RXRa 270nM:90nM, anti-RXR (NR concentration 270 nM, RXRa partner concentration 90 nM)
- assay: PBM binding z-score (relative to random genomic background probes); higher = stronger binding; sequences stand for … in GC…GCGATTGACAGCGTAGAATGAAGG
Entries and their PBM binding z-score values follow.
Please reply with the number alone, leaving off any unit.

Known results for sequences:
CCTACTGGGCCAAAAAGGTCAGTGATGCCGATAA: 2.9
CCTACTGGGCCCAGGTCATTGATCAGTCAAAGCA: 1.4

(Q) Can you look up the measured PBM binding z-score of CGAACTAGGTCATTGACAGGTCAGTGAATAGTAA for me?
(A) 6.55

(Q) Can you look up the measured PBM binding z-score of TCTATGAGTTGATTAGGGCAACCGAAACAGCGGA for me?
(A) 1.31

(Q) Can you look up the measured PBM binding z-score of TCATGTAGGTAAACAGGTGAAAGTCCGTAAGTTA for me?
(A) 3.74

(Q) Can you look up the measured PBM binding z-score of CGTCCAAGGTCATAGGAGGTGAGTGAAGACAGAT for me?
(A) 5.08

(Q) Can you look up the measured PBM binding z-score of AGTCAAAGTTCAACTAGGTAACGTAAGATATGCT for me?
(A) 6.67

(Q) Can you look up the measured PBM binding z-score of ATCTCCAGGTAAGACTCAGTTCAGTGAAGAACGC for me?
(A) 0.41

(Q) Can you look up the measured PBM binding z-score of TCTATTAGTTGAAGGGCAAGCGACGAGTCCGTTT for me?
(A) 2.29

(Q) Can you look up the measured PBM binding z-score of AGTCAAAGTTCGCTAGGTAACGTAAGATTCAGCT for me?
(A) 2.36

(Q) Can you look up the measured PBM binding z-score of TCTTGTAGATCAAAGGTTAAGCAAGCCGAAGCCT for me?
(A) 8.42

(Q) Can you look up the measured PBM binding z-score of GCTATTAGTTGAAAGGTCAACCGAATGATTCTCG for me?
(A) 6.96

(Q) Can you look up the measured PBM binding z-score of GCTTGTAGATCTAGGTTAAGAAAGACTAAGCTAA for me?
(A) 0.539

(Q) Can you look up the measured PBM binding z-score of CCTATTAGTTGACCATAAGGGCGACCGAAGCTCG for me?
(A) 0.138

(Q) Can you look up the measured PBM binding z-score of TTACCAAGCTGAAAGGTCGTTGATGCACGCCTTG for me?
(A) 3.29

====

- Tested on: LXRb homodimer (NR concentration 270 nM)
- assay: PBM binding z-score (relative to random genomic background probes); higher = stronger binding; sequences stand for … in GC…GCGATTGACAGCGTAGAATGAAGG
Rule: PBM binding z-score of 0.2 or more gives yes; anything lower gives no.

CGGCCAAGGTCAGAGAGGTCAGTGAATGCCGAGT: no
TCATATAGGTAAAAGGTGTAAGTCGGTGTGGTAA: no
CCTAGCAGGCCATGGTCACTCAAGCATTTCGCTT: no
GCTGCTAGGTCAGGTTCGTCAGCTAACGGGTACG: no
TCTTGTAGATCAGCAGGTTAAGCAAGCTGGCCAA: no

(Q) Textbook exercise: given the entry TCTCGGAGAACACGAAGGTCAGAGCTTTCCAGAG , state whether its PBM binding z-score is greater than or equal to 0.2.
(A) no

(Q) Textbook exercise: given the entry TCTGCTAGGTCAGTTGGTCTGCTAACGAGCTGCC , state whether its PBM binding z-score is greater than or equal to 0.2.
(A) yes

====

- System: RXRa DBDmut IVT, anti-RXR (DBD mutation: RXRa K156A/R161A, NR concentration 90 nM)
- assay: PBM binding z-score (relative to random genomic background probes); higher = stronger binding; sequences stand for … in GC…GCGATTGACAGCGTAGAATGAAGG
Classes based on PBM binding z-score: LOW: < 0.4; MID: ≥ 0.4 and < 2; HIGH: ≥ 2

(Q) Class (by measured PBM binding z-score) for CCTAGTTGCTCAGGAGGTCACACACCGGATATGA
(A) MID

(Q) Class (by measured PBM binding z-score) for TAGCCAAGGTCATGCGGGCCAGTATAGTGTCGGC
(A) HIGH

(Q) Class (by measured PBM binding z-score) for TCATATAGGTTAATGCTAGGTGAAAGTCCGATCT
(A) MID

(Q) Class (by measured PBM binding z-score) for CGCCCAAGGTCAAGGTCAGTGAAAGAGACTCGAA
(A) HIGH

(Q) Class (by measured PBM binding z-score) for ATCTCTAGGTAAAAGTTGAGTGAATCCCGAGGAT
(A) LOW

(Q) Class (by measured PBM binding z-score) for GCTTACGGGTCAAAGGTTTTAGCATGAATAGAAT
(A) HIGH

====

- Tested on: PPARg homodimer (NR concentration 180 nM)
- assay: PBM binding z-score (relative to random genomic background probes); higher = stronger binding; sequences stand for … in GC…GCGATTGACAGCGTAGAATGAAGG
Entries and their PBM binding z-score values follow.
Please reply with the number alone, leaving off any unit.

TGTCAAAGTTCAAAGGTAACGTCAGTATCCACAC: 4.29
GAAACAGGGTCAAGGCCAGAGTACGCGTATTGAT: 2.18

(Q) Can you look up the measured PBM binding z-score of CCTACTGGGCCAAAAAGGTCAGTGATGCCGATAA for me?
(A) 2.33

(Q) Can you look up the measured PBM binding z-score of TTGAGTAGGTTAGGGGCATTCAGAATGGCGTCGA for me?
(A) 1.61

====

Entries and their PBM binding z-score values follow.
- Test system: PXR:RXRa (NR concentration 270 nM, RXRa partner concentration 90 nM)
- assay: PBM binding z-score (relative to random genomic background probes); higher = stronger binding; sequences stand for … in GC…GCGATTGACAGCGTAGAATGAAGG
Please reply with the number alone, leaving off any unit.

Known results for sequences:
CGAACGAGGGCATGAGTTGATTGCAAATGCCGAT: 0.676
CCTTCCGGGTCACGAGGTTATAGCACGACGAGCG: 4.81
TCATATAGATAAAGGTGAAAGTCGAACGATATGA: 0.893
CCTACTGGGCCTAAAAGGTCATTGATGCCGATAA: 4.85
ATCACTAGGTAACAAGTTCAGTGAAAGAGAGGAC: 1.95
CAGCCTAGGTCAGGGCCAGTGTAGGAGGAACGTT: 0.476
CATATAGGGTCAGCTAGGCCAGAGTAGGGACGGC: 2.17
AAATGTAGGTTACATCCGGGTCATTCAGGCTATG: 3.79

(Q) Can you look up the measured PBM binding z-score of CCTAGTTGGTCCAGGTCACACACGCTATAGGTAC for me?
(A) 2.34

(Q) Can you look up the measured PBM binding z-score of CCTATTAGTTGACCATAAAGGCAACCGAAGCTCG for me?
(A) 0.343

(Q) Can you look up the measured PBM binding z-score of CCTTACGGGTCAAAGTTATAGCACGGGTGGTACG for me?
(A) 3.35

(Q) Can you look up the measured PBM binding z-score of TTACCAAGGTGAGCGGAGGTCGTTGATCCAACTC for me?
(A) 4.22

====

- Tested on: PPARa:RXRa (NR concentration 270 nM, RXRa partner concentration 90 nM)
- assay: PBM binding z-score (relative to random genomic background probes); higher = stronger binding; sequences stand for … in GC…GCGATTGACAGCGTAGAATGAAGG
quantity.kind: PBM binding z-score
Please reply with the number alone, leaving off any unit.

Known results for sequences:
TCTTGTAGATCAACAGGAGGTTACGAAAGATCGA: 1.55
CCTGCTAGGTCATGCTCAGCTAATCTACAGTATG: 2.99
CCGACTGGGGCAGAAAGGTCACCATACCATCCGG: 4.65
CATAGAGGGTCAGCTAGGCCAGAGTAGGGACGGC: 3.45
AGAATGAGGTTACCAATGATCAGGGAAACGCTTG: 3.33

Let's switch to this sequence now.
(Q) Can you look up the measured PBM binding z-score of TCATATAGGTAAAGGTGAATGTCGAACGATATGA for me?
(A) 2.99
